Origin of the recorded values: ChEMBL document CHEMBL1138609

# reported inhibition; entries follow
- TARGET OR SYSTEM: Acid-sensing ion channel 3 (Homo sapiens)
- Sequence (whole entry): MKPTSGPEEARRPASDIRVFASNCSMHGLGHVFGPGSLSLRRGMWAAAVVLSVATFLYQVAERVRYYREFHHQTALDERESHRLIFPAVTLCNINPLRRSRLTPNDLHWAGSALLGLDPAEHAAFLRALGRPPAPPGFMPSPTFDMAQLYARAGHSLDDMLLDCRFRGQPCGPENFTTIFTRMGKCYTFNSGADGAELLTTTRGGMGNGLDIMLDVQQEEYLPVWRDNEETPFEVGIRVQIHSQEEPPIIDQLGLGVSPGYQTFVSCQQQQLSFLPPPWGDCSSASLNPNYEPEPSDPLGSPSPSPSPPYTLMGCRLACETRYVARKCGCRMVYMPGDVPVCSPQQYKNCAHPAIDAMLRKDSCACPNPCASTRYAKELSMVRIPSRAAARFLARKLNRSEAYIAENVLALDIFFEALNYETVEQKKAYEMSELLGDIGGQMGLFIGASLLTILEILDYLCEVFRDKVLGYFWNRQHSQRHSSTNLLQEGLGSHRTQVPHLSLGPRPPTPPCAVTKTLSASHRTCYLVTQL
- TEST NAME: Inhibition of ASIC3 assessed as inhibition of peak current at 1 uM by patch clamp electrophysiology relative to baseline
MEASURE: inhibition (%)

INSERT INTO measurements (substance_smiles, unit_string, value_observed) VALUES
  ('NC(N)=NC(=O)c1ncc(-c2ccsc2)nc1N', '%', 23),
  ('NC(N)=NC(=O)c1nc(Cl)c(Oc2cc3ccccc3cn2)nc1N', '%', 11),
  ('NC(N)=NC(=O)c1nc(Cl)c(NC2CCCCC2)nc1N', '%', 21),
  ('NC(N)=NC(=O)c1ncc(-c2ccc(-c3ccccc3)cc2)nc1N', '%', 7),
  ('C=CCNc1nc(N)c(C(=O)N=C(N)N)nc1Cl', '%', 16),
  ('NC(N)=NC(=O)c1ncc(Cc2ccccc2)nc1N', '%', 4),
  ('NC(N)=NC(=O)c1nc(Cl)c(Nc2cccc(Cl)c2)nc1N', '%', 47),
  ('NC(N)=NC(=O)c1ncc(-c2cccc3ccccc23)nc1N', '%', 21),
  ('NC(N)=NC(=O)c1nc(Cl)c(Sc2ccc3ccccc3c2)nc1N', '%', 12),
  ('NC(N)=NC(=O)c1nc(Cl)c(NCCc2ccccc2F)nc1N', '%', 34),
  ('NC(N)=NC(=O)c1ncc(-c2cccc(-c3ccoc3)c2)nc1N', '%', 30),
  ('NC(N)=NC(=O)c1nc(Cl)c(N2CCc3ccccc32)nc1N', '%', 46);
